- Target of assay: T1, human FLT3 (FMS-like tyrosine kinase 3) (human, UniProt P36888 27-993)
- T1 sequence (looked up): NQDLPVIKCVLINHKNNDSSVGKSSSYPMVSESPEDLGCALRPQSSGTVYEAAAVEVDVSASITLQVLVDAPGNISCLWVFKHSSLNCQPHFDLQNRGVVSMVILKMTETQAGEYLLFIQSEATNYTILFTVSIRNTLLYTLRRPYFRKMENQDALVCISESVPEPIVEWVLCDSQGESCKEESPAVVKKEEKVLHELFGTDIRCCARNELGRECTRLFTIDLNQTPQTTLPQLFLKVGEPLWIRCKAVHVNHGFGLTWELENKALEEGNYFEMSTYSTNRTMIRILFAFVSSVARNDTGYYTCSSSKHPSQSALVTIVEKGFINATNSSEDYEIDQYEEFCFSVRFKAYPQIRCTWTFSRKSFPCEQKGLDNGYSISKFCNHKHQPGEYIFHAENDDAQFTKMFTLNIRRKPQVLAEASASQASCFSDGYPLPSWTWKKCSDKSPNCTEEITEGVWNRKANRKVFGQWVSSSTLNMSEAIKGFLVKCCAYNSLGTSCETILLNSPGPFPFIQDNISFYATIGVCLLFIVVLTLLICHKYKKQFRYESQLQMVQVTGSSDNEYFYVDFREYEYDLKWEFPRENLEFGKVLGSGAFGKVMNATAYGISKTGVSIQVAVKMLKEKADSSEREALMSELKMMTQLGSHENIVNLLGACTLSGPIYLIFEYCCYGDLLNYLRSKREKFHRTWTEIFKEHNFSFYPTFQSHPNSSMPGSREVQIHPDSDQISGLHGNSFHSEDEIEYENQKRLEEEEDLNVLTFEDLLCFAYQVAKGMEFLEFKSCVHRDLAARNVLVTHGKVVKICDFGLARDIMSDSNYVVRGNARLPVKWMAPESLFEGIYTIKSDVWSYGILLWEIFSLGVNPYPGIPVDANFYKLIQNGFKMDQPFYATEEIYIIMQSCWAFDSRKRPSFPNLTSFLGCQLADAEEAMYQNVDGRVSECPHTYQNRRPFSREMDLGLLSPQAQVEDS
- Measurement protocol: cell-based or functional assay
Each entry below carries its recorded EC50 in AML5 proliferation assay.
Give the quantity in nM, number only.

Completed entries (count: 3):
INSERT INTO measurements (binder, assay_value) VALUES
  ('NB1063 (antibody, V domains shown) VH: EVQLLESGGGLVQPGGSLRLSCAPSGFTFSNYGMAWVRQAPGKGLEWVSSIHSGGGDTYYRDSVKGRFTISRDNSKNTLYLQMNSLRAEDTAVYYCARGRTPTGYYFDHWGQGTMVTVSS VL: DIQMTQSPSSLSASVGDRVTITCRASEGIHNGLAWYQQKPGKVPKLLIYNANSLHSGVPSRFSGSGSGTDFTLTISSLQPEDVATYFCQQYYDYPLTFGQGTKLEIK', 0.118),
  ('NB1114 (antibody, V domains shown) VH: EVQLLESGGGLVQPGGSLRLSCAPSGFTFSNYGMAWVRQAPGKGLEWVSSIHSGGGDTYYRDSVKGRFTISRDNSKNTLYLQMNSLRAEDTAVYYCARGRTPTGYYFDHWGQGTMVTVSS VL: DIQMTQSPSSLSASVGDRVTITCRASEGIHTGLAWYQQKPGKVPKLLIYNANSLHSGVPSRFSGSGSGTDFTLTISSLQPEDVATYFCQQYYDYPLTFGQGTKLEIK', 0.201),
  ('NB1112 (antibody, V domains shown) VH: EVQLLESGGGLVQPGGSLRLSCAPSGFTFSNYGMAWVRQAPGKGLEWVSSIHSGGGDTYYRDSVKGRFTISRDNSKNTLYLQMNSLRAEDTAVYYCARGRTPTGYYFDHWGQGTMVTVSS VL: DIQMTQSPSSLSASVGDRVTITCRASEGIHDGLAWYQQKPGKVPKLLIYNANSLHSGVPSRFSGSGSGTDFTLTISSLQPEDVATYFCQQYYDYPLTFGQGTKLEIK', 0.27);

Consider now this further binder.
input: Fill in the blank: the reported EC50 in AML5 proliferation assay of NB1115 (antibody, V domains shown) VH: EVQLLESGGGLVQPGGSLRLSCAPSGFTFSNYGMAWVRQAPGKGLEWVSSIHSGGGDTYYRDSVKGRFTISRDNSKNTLYLQMNSLRAEDTAVYYCARGRTPTGYYFDHWGQGTMVTVSS VL: DIQMTQSPSSLSASVGDRVTITCRASEGIHLGLAWYQQKPGKVPKLLIYNANSLHSGVPSRFSGSGSGTDFTLTISSLQPEDVATYFCQQYYDYPLTFGQGTKLEIK is ____.
output: 0.135
